src = PubChem BioAssay AID686979

Test: qHTS for Inhibitors of human tyrosyl-DNA phosphodiesterase 1 (TDP1): qHTS in cells in presence of CPT; note: nearly all actives have a fitted effect of over 55% in size
Settings: chicken DT40 Tdp1-/-;hTDP1 cells + 20 nM CPT, ATP luminescence, 48 h; series mostly up to 46.2 µM
The whole screen tested about 420,000 compounds, of which about 50,000 (12%) were called active. Inconclusive results (about 26%) are left out. Calls come from the whole dose curve; as a rule, active = well fitted inhibition curve with a large enough effect; inconclusive = small, poorly fitted or top-dose-only effect; inactive = flat fitted curve, though single readings scatter. Many of the other results were omitted from the sample, so actives are more common in it than they were.
Outcome (select one): true (1) (active), false (0) (inactive)

Example entries and their recorded answers appear below.
{"Compound": "CC1=C(C(=O)N2CCOCC2)CC(CC(=O)NCCCN(C)C)C(=O)N1Cc1ccc(C(C)(C)C)cc1 (stereo unspecified)", "Label class": "false (0)"}
{"Compound": "Cc1ccc2nc(S(=O)(=O)O)[nH]c2c1", "Label class": "false (0)"}
{"Compound": "O=C1NC(=O)C(c2ccc(Cl)cc2)N1 (stereo unspecified)", "Label class": "false (0)"}
{"Compound": "CCOC(=O)CSc1nc2ccc(C)cc2[nH]1", "Label class": "false (0)"}
{"Compound": "Cc1ccc2nc(/C(C#N)=C\\c3ccc(OC(=O)c4cccs4)cc3)[nH]c2c1", "Label class": "true (1)"}

[Q] Please let me know the test result on file for COc1ccc2c(c1)OC(O)(C(F)(F)C(F)F)CC2=O (stereo unspecified) .
[A] true (1)

[Q] Please let me know the test result on file for O=C(CCc1nnc(Cc2ccc3c(c2)OCO3)o1)NCCc1ccccc1Cl .
[A] true (1)

[Q] Please let me know the test result on file for COc1ccc(NC(=O)CCCNC(=O)Cn2cnc3sc4c(c3c2=O)CCCC4)cc1OC .
[A] false (0)

[Q] Please let me know the test result on file for CCCNC(=O)c1onc(CSc2ccc(F)cc2)c1C(=O)NC(C)C .
[A] false (0)

[Q] Please let me know the test result on file for Cc1ccc2nc(/C(C#N)=C/c3ccc(-c4ccc(C(=O)OC(C)C)cc4)o3)[nH]c2c1 .
[A] true (1)

[Q] Please let me know the test result on file for Cc1ccc(CC(=O)Nc2ccc(OC(F)F)c(Cl)c2)cc1C .
[A] false (0)

----------
Experiment: qHTS for Inhibitors of human tyrosyl-DNA phosphodiesterase 1 (TDP1): qHTS in cells in presence of CPT; note: nearly all actives have a fitted effect of over 55% in size
Conditions: chicken DT40 Tdp1-/-;hTDP1 cells + 20 nM CPT, ATP luminescence, 48 h; series mostly up to 46.2 µM
The campaign covered roughly 420,000 compounds. About 50,000 (12%) were called active. Another 26% or so got no clear call; they are omitted. Calls follow the shape of the dose curve; as a rule, active = well fitted inhibition curve with a large enough effect; inconclusive = small, poorly fitted or top-dose-only effect; inactive = flat fitted curve, though single readings scatter. The sample holds actives, similar compounds and a random draw of the others, so the mix is not that of the screen.
Outcome (select one): label 1 for active, label 0 for inactive

{"Compound": "CN(Cc1c(F)cccc1Cl)C(=O)CNC(=O)c1ccc2c(c1)OCO2", "Label class": "label 0"}
{"Compound": "Nc1ccc(C(=O)N2CCN(S(=O)(=O)c3ccc(Cl)cc3)CC2)cc1[N+](=O)[O-]", "Label class": "label 0"}
{"Compound": "CN(C)CCCOc1ccc(-c2ccc3nccn3c2)cn1", "Label class": "label 0"}
{"Compound": "O=C(CN1CCCCCC1)Nc1c(Cl)cc(Cl)cc1Cl", "Label class": "label 0"}
{"Compound": "COCCN(Cc1cc2cc3c(cc2nc1Cl)OCO3)C(=O)c1cccc(C)c1", "Label class": "label 1"}
{"Compound": "C/C=C/C(=O)OCC(=O)Nc1ccc(F)cc1Cl", "Label class": "label 0"}
{"Compound": "CC(=O)Nc1cccc(Nc2nc(-c3cccs3)nc3ccccc23)c1", "Label class": "label 1"}
{"Compound": "CN(C(=O)CN1C(=O)/C(=C/c2ccc(Cl)cc2)SC1=S)C1CCS(=O)(=O)C1 (configuration not stated)", "Label class": "label 1"}

[Q] Please let me know the test result on file for COCCNC(=O)c1onc(CSc2cccc(C)c2)c1C(=O)O .
[A] label 0

[Q] Please let me know the test result on file for CCN(CC)CCNC(=O)CN1N=C(c2ccc(OC)cc2)CCC1=O .
[A] label 0

[Q] Please let me know the test result on file for NC(=O)C1CCN(C(=O)c2ccc(F)c(S(=O)(=O)N3CCOCC3)c2)CC1 .
[A] label 0

[Q] Please let me know the test result on file for CN(C(=O)CCN1C(=O)/C(=C/c2ccccc2F)SC1=S)C1CCS(=O)(=O)C1 (configuration not stated) .
[A] label 0

[Q] Please let me know the test result on file for CN(C(=O)CN1C(=O)S/C(=C\c2ccccc2F)C1=O)C1CCS(=O)(=O)C1 (configuration not stated) .
[A] label 0

[Q] Please let me know the test result on file for O=C(NCc1ccco1)c1cccn2c(=O)c3c4c(sc3nc12)CCCC4 .
[A] label 1

[Q] Please let me know the test result on file for COc1ccc(C(=O)COC(=O)C(O)c2ccccc2)c(OC)c1 (configuration not stated) .
[A] label 0
